Measured values drawn from patent US20170094972A1 for this set.

Some compounds, each annotated with its measured pest or weed control at 0.2 ppm.
system: Anopheles stephensi; assay: 12 well plate knockdown test; assay type: in vivo; conditions: 1 h, Rate 0.2 PPM, read-out: Anopheles stephensi 1 hour % KD

compound	assayed.target	unit.string	pest or weed control at 0.2 ppm
N/C(=N/C(=O)c1cnccc1C(F)(F)F)c1ncccn1 [I.14]	Anopheles stephensi	%	40
NC(=S)c1cnccc1C(F)(F)F [I.22]	Anopheles stephensi	%	40
CC(C)CC(=O)ON(C)C(=O)c1cnccc1C(F)(F)F [I.10]	Anopheles stephensi	%	40

----------
system: Anopheles stephensi; experiment: 12 well plate knockdown test; format: in vivo; conditions: 1 h, Rate 2 PPM, read-out: Anopheles stephensi 1 hour % KD
parameter: pest or weed control at 2 ppm (%)

1. CN(C)CNC(=O)c1cnccc1C(F)(F)F 20
2. CCN(Cc1ccccc1)C(=O)c1cnccc1C(F)(F)F 0
3. CCCN1CN=C(c2cnccc2C(F)(F)F)OC1=O 0
4. CN(OC(=O)Oc1ccccc1)C(=O)c1cnccc1C(F)(F)F 0

----------
test system: Anopheles stephensi; assay: 12 well plate knockdown test; type: in vivo; settings: 1 h, Rate 0.2 PPM, read-out: Anopheles stephensi 1 hour % KD

compound	pest or weed control at 0.2 ppm, %
CC(NC(=O)c1cnccc1C(F)(F)F)C(N)=S (centres unmarked)	0
NC(=O)c1cnccc1C(F)(F)F	20
CN(OC(=O)Oc1ccccc1)C(=O)c1cnccc1C(F)(F)F	0
CCN(Cc1ccccc1)C(=O)c1cnccc1C(F)(F)F	0
O=C(NC(=O)c1cnccc1C(F)(F)F)c1cccs1	0
